Where do the numbers come from? From patent US20220411492A1.

Give EC50 for every item shown.
targetOrTestSystem: murine CLDN18.2 (mCLDN18.2) (murine) (UniProt P56857)
assay: FACS, HEK293-mCLDN18.2 cells
The response must be a number in µg/mL with no trailing unit.

EC50 lookup needed for hu299B2-S32A-1 (antibody, V domains shown, also called humanized antibody hu299B2-S32A) VH: QVQLVQSGAEVKKPGASVKVSCKASGYIFTNYWIHWVRQAPGQGLEWMGRIYPGTGNTYYNEKFTGRVTMTRDTSTSTVYMELSSLRSEDTAVYYCAREGYGKGNSMDYWGQGTTVTVSS VL: DIVMTQSPDSLAVSLGERATINCKSSQSLLNAGNQKNYLTWYQQKPGQPPKLLIYWASTRESGVPDRFSGSGSGTDFTLTISSLQAEDVAVYYCQNAYYYPYTFGGGTKLEIK , thanks.
0.201

Entry to check: hu299B2-S32A-3 (antibody, V domains shown, also called humanized antibody hu299B2-S32A) VH: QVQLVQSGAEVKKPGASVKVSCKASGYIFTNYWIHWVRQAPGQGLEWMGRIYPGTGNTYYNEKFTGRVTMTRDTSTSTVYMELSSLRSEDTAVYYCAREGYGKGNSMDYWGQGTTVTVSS VL: DIVMTQSPDSLAVSLGERVTMNCKSSQSLLNAGNQKNYLTWYQQKPGQPPKLLFYWASTRESGVPDRFSGSGSGTDFTLTISSVQAEDVAVYHCQNAYYYPYTFGGGTKLEIK
0.342

Do the same for hu299B2-S32A-4 (antibody, V domains shown, also called humanized antibody hu299B2-S32A) VH: QVQLVQSGAEVKKPGASVKVSCKTSGYIFTNYWIHWVRQAPGQGLEWMGRIYPGTGNTYYNEKFTGRVTLTADTSTSTVYMELSSLRSEDTAVYYCSREGYGKGNSMDYWGQGTTVTVSS VL: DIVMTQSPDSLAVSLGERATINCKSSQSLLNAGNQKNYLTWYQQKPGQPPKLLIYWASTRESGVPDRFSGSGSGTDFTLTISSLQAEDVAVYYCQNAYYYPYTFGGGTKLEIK please
0.281

Same thing, different binder: hu299B2-S32A-2 (antibody, V domains shown, also called humanized antibody hu299B2-S32A) VH: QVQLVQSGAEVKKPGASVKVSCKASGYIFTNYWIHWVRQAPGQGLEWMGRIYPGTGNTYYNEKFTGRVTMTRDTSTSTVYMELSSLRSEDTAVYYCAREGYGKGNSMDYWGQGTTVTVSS VL: DIVMTQSPDSLAVSLGERATMNCKSSQSLLNAGNQKNYLTWYQQKPGQPPKLLFYWASTRESGVPDRFSGSGSGTDFTLTISSLQAEDVAVYHCQNAYYYPYTFGGGTKLEIK
0.111
